Measured pKi, listed per entry.
- subject_of_test: Solute carrier family 15 member 2 (Homo sapiens, UniProt Q16348)
- Sequence (Q16348 whole entry): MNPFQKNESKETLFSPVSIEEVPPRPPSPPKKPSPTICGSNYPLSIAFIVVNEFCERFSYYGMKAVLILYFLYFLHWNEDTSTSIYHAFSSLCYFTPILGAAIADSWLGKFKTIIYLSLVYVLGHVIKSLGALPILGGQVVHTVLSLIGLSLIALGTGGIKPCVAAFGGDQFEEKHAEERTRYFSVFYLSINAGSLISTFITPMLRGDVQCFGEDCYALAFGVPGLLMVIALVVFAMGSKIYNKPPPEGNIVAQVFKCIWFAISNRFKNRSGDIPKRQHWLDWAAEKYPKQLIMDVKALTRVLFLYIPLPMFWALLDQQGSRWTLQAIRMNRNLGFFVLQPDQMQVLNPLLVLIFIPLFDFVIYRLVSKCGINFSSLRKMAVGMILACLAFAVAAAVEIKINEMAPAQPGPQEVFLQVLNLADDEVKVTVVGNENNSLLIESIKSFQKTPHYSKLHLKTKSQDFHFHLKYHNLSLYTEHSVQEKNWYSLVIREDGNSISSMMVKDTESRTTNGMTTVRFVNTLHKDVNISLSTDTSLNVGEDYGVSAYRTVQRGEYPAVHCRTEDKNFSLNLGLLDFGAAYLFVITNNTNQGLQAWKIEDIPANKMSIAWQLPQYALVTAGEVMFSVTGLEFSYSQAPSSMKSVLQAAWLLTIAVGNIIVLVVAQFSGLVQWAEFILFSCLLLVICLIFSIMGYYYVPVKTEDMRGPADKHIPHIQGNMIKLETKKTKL
- test: TP_TRANSPORTER: inhibition of Gly-Sar uptake in PEPT2-expressing HeLa cells
- Format: functional, cell-based
Where a SMILES comes first, the peptide text is derived from it.
Give only the number. pKi is defined as minus log10 of concentration in molar units.

Answered cases to consult:
[[record]]
molecule = "NCCCC[C@H](NC(=O)[C@@H](N)CC(=O)O)C(=O)O (H-Asp-Lys-OH)"
subject_of_test = "Solute carrier family 15 member 2 (Homo sapiens, UniProt Q16348)"
property_measured = "pKi"
assay_value = 5.10

[[record]]
molecule = "C[C@H](N)C(=O)N[C@@H](C)C(=O)O (H-Ala-Ala-OH)"
subject_of_test = "Solute carrier family 15 member 2 (Homo sapiens, UniProt Q16348)"
property_measured = "pKi"
assay_value = 5.22

[[record]]
molecule = "C[C@H](N)C(=O)N[C@@H](CCCCN)C(=O)O (H-Ala-Lys-OH)"
subject_of_test = "Solute carrier family 15 member 2 (Homo sapiens, UniProt Q16348)"
property_measured = "pKi"
assay_value = 4.96

[[record]]
molecule = "C[C@H](NC(=O)[C@@H](N)CCCCN)C(=O)O (H-Lys-Ala-OH)"
subject_of_test = "Solute carrier family 15 member 2 (Homo sapiens, UniProt Q16348)"
property_measured = "pKi"
assay_value = 4.64


// moving on: another record for pKi
Q: For the molecule C[C@H](N)C(=O)N[C@@H](CC(=O)O)C(=O)O (H-Ala-Asp-OH) , what pKi is on record?
Result: 4.74

meta.source: ChEMBL document CHEMBL2073955
